Consider the following compounds; for each one, report its IC50.
System: A2780
runDescription: Cellular proliferation assay (Alamar blue), A2780
Format: cell-based
appliedConditions: Homo sapiens, 10% FCS, 72 hours with compound, Alamar blue 24 h, read-out: A2780 (cellular proliferation assay, Table 4) (converted)
Protocol: […] functional properties of these compounds were tested in cellular proliferation assays on a panel of different cell lines in the presence of 10% FCS serum (37° C. and 5% (v/v) CO2). In a first step these cells were seeded and incubated for 24 hours in the absence of compound. In the second step the cells were incubated for 72 hours with the compounds to be tested for 72 hours. The viable cell number was finally assessed in a standard Alamar blue cell viability assay. […]

-- ask Reported IC50, compound "O=C1CN2CCN(CC2)Cc2cccc(c2)Nc2nccc(n2)-c2cccc(c2)CN1" : ____
-- reply > 10 µM

-- ask Reported IC50, compound "O=C1NCc2cc(ccc2N2CCOCC2)Nc2nccc(n2)-c2cccc(c2)CN2CCC[C@@H]12" : ____
-- reply 7.08 µM

-- ask Reported IC50, compound "O=C1NCCCOc2cccc(c2)-c2ccnc(n2)Nc2ccc(N3CCOCC3)c(c2)CN2CCC[C@@H]12" : ____
-- reply 6.46 µM

-- ask Reported IC50, compound "COc1ccc2cc1CN(C)CCCNC(=O)CN1CCN(CC1)Cc1cccc(c1)Nc1nccc-2n1" : ____
-- reply > 10 µM

-- ask Reported IC50, compound "C[C@@H]1NCc2cc(ccc2N2CCOCC2)Nc2nccc(n2)-c2cccc(c2)OCCCNC1=O" : ____
-- reply 3.39 µM

-- ask Reported IC50, compound "O=C1CN2CCN(CC2)Cc2ccc(cc2)Nc2nccc(n2)-c2cccc(c2)CN1" : ____
-- reply > 10 µM

-- ask Reported IC50, compound "COc1ccc2cc1CNCCNC(=O)[C@@H]1CCCN1Cc1cc(ccc1N1CCOCC1)Nc1nccc-2n1" : ____
-- reply > 10 µM

-- ask Reported IC50, compound "COc1ccc2cc1CN(C)CCNC(=O)C1CCN(CC1)Cc1cc(NCCc3ccccc3)cc(c1)Nc1nccc-2n1" : ____
-- reply 3.02 µM

-- ask Reported IC50, compound "O=C1NCc2cccc(c2)-c2ccnc(n2)Nc2cc(ccc2Cl)CN2CCC[C@@H]12" : ____
-- reply > 10 µM

-- ask Reported IC50, compound "CN1CCNC(=O)[C@@H]2CCCN2Cc2cccc(c2)Nc2nccc(n2)-c2ccc(cc2)C1" : ____
-- reply > 10 µM

-- ask Reported IC50, compound "COc1cc2cc(c1)Nc1nccc(n1)-c1ccc(cc1)CN(C)CCNC(=O)[C@H](CO)NC2" : ____
-- reply > 10 µM

-- ask Reported IC50, compound "O=C1NCc2cccc(c2)-c2ccnc(n2)Nc2cc(CN3CCOCC3)cc(c2)CN2CCC[C@@H]12" : ____
-- reply 0.437 µM

-- ask Reported IC50, compound "CN1CCN(C(=O)c2cc3cc(c2)Nc2nccc(n2)-c2cccc(c2)CNC(=O)[C@@H]2CCCN2C3)CC1" : ____
-- reply > 10 µM

-- ask Reported IC50, compound "O=C1NCc2cccc(c2)-c2ccnc(n2)Nc2cccc(c2)CN2C[C@@H](O)C[C@@H]12" : ____
-- reply 1.66 µM

-- ask Reported IC50, compound "COc1ccc2cc1CNCCNC(=O)CN1CCN(CC1)Cc1cc(ccc1N1CCOCC1)Nc1nccc-2n1" : ____
-- reply 5.37 µM

-- ask Reported IC50, compound "CC(C)Nc1cc2cc(c1)Nc1nccc(n1)-c1ccc(cc1)CN(C)CCCNC(=O)[C@H](CO)NC2" : ____
-- reply > 10 µM

-- ask Reported IC50, compound "COc1cc2cc(c1)Nc1nccc(n1)-c1ccc(OC)c(c1)CN(C)CCNC(=O)[C@@H]1CCCN1C2" : ____
-- reply > 10 µM

-- ask Reported IC50, compound "COc1ccc2cc1CN(C)CCCNC(=O)[C@H](CO)NCc1cccc(c1)Nc1nccc-2n1" : ____
-- reply > 10 µM

-- ask Reported IC50, compound "CN1CCNC(=O)CN2CCN(CC2)Cc2cccc(c2)Nc2nccc(n2)-c2ccc(cc2)C1" : ____
-- reply > 10 µM

-- ask Reported IC50, compound "C[C@@H]1NCc2ccc(Cl)c(c2)Nc2nccc(n2)-c2cccc(c2)CNC1=O" : ____
-- reply > 10 µM

-- ask Reported IC50, compound "O=C1NCc2cccc(c2)-c2ccnc(n2)Nc2ccc(N3CCOCC3)c(c2)CN2C[C@@H](O)C[C@@H]12" : ____
-- reply 0.661 µM

-- ask Reported IC50, compound "O=C1NCc2cccc(c2)-c2ccnc(n2)Nc2ccc(N3CCOCC3)c(c2)CN[C@H]1Cc1ccccc1" : ____
-- reply 9.33 µM

-- ask Reported IC50, compound "O=C1CN2CCN(CC2)Cc2cc(ccc2N2CCOCC2)Nc2nccc(n2)-c2cccc(c2)CN1" : ____
-- reply > 10 µM

-- ask Reported IC50, compound "COc1ccc2cc1CN(C)CCNC(=O)[C@@H]1CCCN1Cc1cccc(c1)Nc1nccc-2n1" : ____
-- reply > 10 µM

-- ask Reported IC50, compound "O=C1NCc2cccc(c2)-c2ccnc(n2)Nc2cc(ccc2Cl)CN2CCC1CC2" : ____
-- reply > 10 µM

-- ask Reported IC50, compound "O=C1CN2CCN(CC2)Cc2cccc(c2)Nc2nccc(n2)-c2ccnc(c2)CCCN1" : ____
-- reply 7.59 µM

-- ask Reported IC50, compound "COc1cc2cc(c1OC)CN1CCC[C@H]1C(=O)NCc1cccc(c1)-c1ccnc(n1)N2" : ____
-- reply > 10 µM

-- ask Reported IC50, compound "O=C1CN2CCN(CC2)Cc2cc(ccc2N2CCOCC2)Nc2nccc(n2)-c2ccc(cc2)CN1" : ____
-- reply > 10 µM

-- ask Reported IC50, compound "COc1ccc2cc1CN(C)CCNC(=O)[C@@H]1CCCN1Cc1cc(cc(NC(C)C)c1)Nc1nccc-2n1" : ____
-- reply > 10 µM

-- ask Reported IC50, compound "COc1ccc2cc1CN1CCC(CC1)C(=O)N(C)CCCN(C)c1ccc(cn1)-c1ccnc(n1)N2" : ____
-- reply > 10 µM

-- ask Reported IC50, compound "O=C1NCCNCc2ccc(cc2)-c2ccnc(n2)Nc2ccc(N3CCOCC3)c(c2)CN[C@H]1Cc1ccccc1" : ____
-- reply 6.03 µM
